# target-or-system: human TLR8 (Homo sapiens, UniProt Q9NR97)
# Construct: host or cells: HEK293 reporter cells
# Sequence (Q9NR97 27-1041): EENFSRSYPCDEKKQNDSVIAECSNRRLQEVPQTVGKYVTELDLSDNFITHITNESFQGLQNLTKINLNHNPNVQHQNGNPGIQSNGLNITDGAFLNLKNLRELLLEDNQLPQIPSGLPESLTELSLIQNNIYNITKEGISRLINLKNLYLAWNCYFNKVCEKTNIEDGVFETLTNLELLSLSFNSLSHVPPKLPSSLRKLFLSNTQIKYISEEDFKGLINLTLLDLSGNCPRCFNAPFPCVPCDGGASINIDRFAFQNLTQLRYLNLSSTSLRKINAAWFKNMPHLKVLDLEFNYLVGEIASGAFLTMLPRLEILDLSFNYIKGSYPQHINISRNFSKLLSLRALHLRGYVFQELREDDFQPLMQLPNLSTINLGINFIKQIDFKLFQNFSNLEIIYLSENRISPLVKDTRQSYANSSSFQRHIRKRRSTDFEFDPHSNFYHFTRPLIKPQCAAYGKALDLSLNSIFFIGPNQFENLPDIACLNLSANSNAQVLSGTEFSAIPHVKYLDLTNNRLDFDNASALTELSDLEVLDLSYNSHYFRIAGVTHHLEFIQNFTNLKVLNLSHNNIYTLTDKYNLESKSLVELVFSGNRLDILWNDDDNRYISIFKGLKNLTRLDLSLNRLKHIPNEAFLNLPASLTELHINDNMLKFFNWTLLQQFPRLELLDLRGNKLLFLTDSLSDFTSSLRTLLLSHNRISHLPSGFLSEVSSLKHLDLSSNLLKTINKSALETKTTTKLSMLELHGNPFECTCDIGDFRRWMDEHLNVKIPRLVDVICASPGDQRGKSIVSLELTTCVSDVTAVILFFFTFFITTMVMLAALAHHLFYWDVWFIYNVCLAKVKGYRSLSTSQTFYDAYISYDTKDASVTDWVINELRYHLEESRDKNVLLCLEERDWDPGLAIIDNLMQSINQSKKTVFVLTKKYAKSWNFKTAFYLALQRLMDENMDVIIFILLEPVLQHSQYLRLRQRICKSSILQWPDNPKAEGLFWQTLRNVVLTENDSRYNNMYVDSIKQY
# assay-comment: HEK293 NFKB reporter assay, human TLR8
# Assay type: cell-based
# test-settings: Table 1c; HEK293 reporter cells expressing human TLR8; read-out: HEK293 hTLR8 EC50
observed-property: EC50 (nM)
The reply should contain only the number, in nM.

[
  {
    "compound": "CCCN(CCC)C(=O)C1=Cc2ccc(CCCCCNC(=O)OC(C)(C)C)cc2N=C(N)C1 [Bz-69]",
    "unit-annotation": "nM",
    "EC50": 6670
  },
  {
    "compound": "CCCN(CCC)C(=O)C1=Cc2ccc(-c3c(C)n[nH]c3C)cc2N=C(N)C1 [Bz-45]",
    "unit-annotation": "nM",
    "EC50": 345
  },
  {
    "compound": "CCCN(CCC)C(=O)C1=Cc2ccc(-c3cc(C(F)(F)F)cc(S(=O)(=O)N4CC(CN(C)C)C4)c3)cc2N=C(N)C1 [Bz-39]",
    "unit-annotation": "nM",
    "EC50": 728
  },
  {
    "compound": "CCCN(CCc1ccc(OC)cc1)C(=O)C1=Cc2ccc(-c3cccc(S(=O)(=O)N4CC(CN(C)C)C4)c3)cc2N=C(N)C1 [Bz-76]",
    "unit-annotation": "nM",
    "EC50": 786
  },
  {
    "compound": "CCCN(CCC)C(=O)C1=Cc2ccc(-c3cccc(S(=O)(=O)N4CC5(CCNC5)C4)c3)cc2N=C(N)C1 [Bz-53]",
    "unit-annotation": "nM",
    "EC50": 249
  },
  {
    "compound": "CCCN(CCCNC(=O)c1ccc(OCC)cc1)C(=O)C1=Cc2ccc(C(=O)Nc3ccccc3)cc2N=C(N)C1 [Bz-55]",
    "unit-annotation": "nM",
    "EC50": 1040
  }
]

Entry under test: CCCN(CCOC)C(=O)C1=Cc2ccc(-c3cccc(S(=O)(=O)N4CC(CO)C4)c3)cc2N=C(N)C1 [Bz-60] . Its EC50 was 288

Documented EC50 of CCCN(NCC)C(=O)C1=Cc2ccc(-c3cccc(S(=O)(=O)N4CC(CO)C4)c3)cc2N=C(N)C1 [Bz-71] : 2750

Item: CCCN(OCC)C(=O)C1=Cc2ccc(-c3cccc(S(=O)(=O)N4CC(CN(C)C)C4)c3)cc2N=C(N)C1 [Bz-63] | EC50: 8

get_value(item= CCCN(CCC)C(=O)C1=Cc2ccc(-c3cccc(S(=O)(=O)N4CCC5(CCNC5)C4)c3)cc2N=C(N)C1 (centres unmarked) [Bz-57] , readout=EC50) returns 741

Lab note: measured EC50 of CCCN(CCC(F)(F)F)C(=O)C1=Cc2ccc(C(=O)Nc3ccccc3)cc2N=C(N)C1 [Bz-75] was 246

The recorded EC50 for entry CCCN(CCC)C(=O)C1=Cc2ccc(-c3cccc(S(=O)(=O)N4[C@@H]5CNC[C@@H]54)c3)cc2N=C(N)C1 (some centres unmarked) [Bz-56] equals 111

response.value for CCCN(OCC)C(=O)C1=Cc2ccc(-c3cccc(S(=O)(=O)N4CC(CO)C4)c3)cc2N=C(N)C1 [Bz-42] (field: EC50) = 49

The reported EC50 of the compound CCCN(CCC(F)(F)F)C(=O)C1=Cc2ccc(-c3cccc(S(=O)(=O)N4CC(CO)C4)c3)cc2N=C(N)C1 [Bz-47] was 341

Note to self: EC50 recorded for CCON(CCC(F)(F)F)C(=O)C1=Cc2ccc(-c3cccc(S(=O)(=O)N4CC(CO)C4)c3)cc2N=C(N)C1 [Bz-66] was 26

// EC50 lookup, compound = CCCN(OCC(F)(F)F)C(=O)C1=Cc2ccc(-c3cccc(S(=O)(=O)N4CC(CO)C4)c3)cc2N=C(N)C1 [Bz-73] , result: 120

Memo: CCCN(CCC)C(=O)C1=Cc2ccc(-c3c(C)nn(S(=O)(=O)N4CC(CO)C4)c3C)cc2N=C(N)C1 [Bz-48] , reported EC50: 499

Entry CCCN(CCC)C(=O)C1=Cc2ccc(-c3cccc(S(=O)(=O)N4CCC(N)CC4)c3)cc2N=C(N)C1 [Bz-54] ; EC50 = 198

// data source = patent US20200390899A1
